Exercise: state measured pIC50 for each of the compounds provided.
System: L1210
PROTOCOL TEXT: Cytotoxicity against mouse L1210 cells assessed as cell growth inhibition
Type: functional, cell-based
A value of pIC50 is the negative decimal logarithm of a concentration given in moles per litre.

Q: What does the data say about its pIC50? Entry: `COC(=O)c1nc2c([nH]1)C(=O)C=C1N(C(=O)c3cc4cc(NC(=O)c5cc6ccccc6[nH]5)ccc4[nH]3)C[C@H]3C[C@]123`
A: 10.40

Q: What value of pIC50 has been recorded for this entry: `COC(=O)c1nc2c([nH]1)C(=O)C=C1N(C(=O)OC(C)(C)C)C[C@@H]3C[C@@]123`
A: 5.96

Q: May I ask what pIC50 has been recorded for `COC(=O)c1cc2c([nH]1)C(=O)C=C1N(C(=O)c3cc4cc(NC(=O)c5cc6ccccc6[nH]5)ccc4[nH]3)C[C@H]3C[C@]123` ?
A: 11.40

Q: Name the recorded pIC50 for `COC(=O)c1nc2c([nH]1)C(=O)C=C1N(C(=O)c3cc4cc(NC(=O)c5cc6ccccc6[nH]5)ccc4[nH]3)C[C@@H]3C[C@@]123` .
A: 9.15

----------
Answer each item with its documented IC50.
System: L1210
PROTOCOL TEXT: Cytotoxicity against mouse L1210 cells assessed as cell growth inhibition
Format: functional, cell-based
Answer with the value and then the unit.

Q: Returns the measured IC50 for the input molecule. Input: `COC(=O)c1nc2c([nH]1)C(=O)C=C1N(C(=O)c3cc4cc(OC)c(OC)c(OC)c4[nH]3)C[C@H]3C[C@]123`
A: 0.05 nM

Q: Given the molecule `COC(=O)c1nc2c([nH]1)C(=O)C=C1N(C(=O)OC(C)(C)C)C[C@H]3C[C@]123` , what is its reported IC50?
A: 70 nM

Q: Please give the measured IC50 for this molecule: `COC(=O)c1nc2c([nH]1)C(=O)C=C1N(C(=O)c3cc4cc(OC)c(OC)c(OC)c4[nH]3)C[C@@H]3C[C@@]123`
A: 2.2 nM

Q: # query: IC50 of entry `COC(=O)c1cc2c([nH]1)C(=O)C=C1N(C(=O)c3cc4cc(NC(=O)c5cc6ccccc6[nH]5)ccc4[nH]3)C[C@@H]3C[C@@]123`
A: 0.15 nM
